Reference source: the NIST ThermoML archive (doi:10.1021/acs.jced.8b00591)

details: 313.15 K; 101.3 kPa; Liquid; Falling or rolling sphere viscometry
measured quantity: viscosity (mPa·s)
Answers are plain numbers, in mPa·s.

// worked examples, viscosity included
compound | viscosity / mPa·s
CCOC(=O)OCC [diethyl carbonate] | 0.625
CCCC[n+]1ccn(C)c1.O=S(=O)([N-]S(=O)(=O)C(F)(F)F)C(F)(F)F | 27.56
CCn1cc[n+](C)c1.O=S(=O)([N-]S(=O)(=O)C(F)(F)F)C(F)(F)F | 20.76

Query compound follows.
Entry under test: COC(=O)OC [dimethyl carbonate] . Its viscosity was 0.498

* * *

Exercise: for every item that follows, state its recorded viscosity.
conditions: 323.15 K; 101.3 kPa; Liquid; Falling or rolling sphere viscometry
One number for each entry, in mPa·s.

compound | viscosity, mPa·s
CCn1cc[n+](C)c1.O=S(=O)([N-]S(=O)(=O)C(F)(F)F)C(F)(F)F | 15.93

Dear reader, for each entry below, please note its viscosity.
1. CCOC(=O)OCC [diethyl carbonate]
2. COC(=O)OC [dimethyl carbonate]
3. CCCC[n+]1ccn(C)c1.O=S(=O)([N-]S(=O)(=O)C(F)(F)F)C(F)(F)F

1. 0.556
2. 0.45
3. 19.97

* * *

Exercise: for every item that follows, state its recorded mass density.
settings: 313.15 K; 101.3 kPa; Liquid; Vibrating tube method
± gives the expanded uncertainty stated by the source.

compound | observed
CCCC[n+]1ccn(C)c1.O=S(=O)([N-]S(=O)(=O)C(F)(F)F)C(F)(F)F | 1421.66 ± 3.5 kg/m3

Dear reader, for each entry below, please note its mass density.
1. CCOC(=O)OCC [diethyl carbonate]
2. COC(=O)OC [dimethyl carbonate]
3. CCn1cc[n+](C)c1.O=S(=O)([N-]S(=O)(=O)C(F)(F)F)C(F)(F)F

1. 952.32 ± 2.3 kg/m3
2. 1043.29 ± 2.5 kg/m3
3. 1503.28 ± 3.7 kg/m3
